# subjectOfTest: SARS-CoV-2 Spike (S) protein, wild type, full length (SARS-CoV-2, UniProt P0DTC2 14-1208)

binder	bead binding signal (fold over isotype)
antibody 263 (antibody, V domains shown) VH: EVQLVQSGAEVKKPGATVKISCKVSGYTFTDYYMHWVQQAPGKGLEWMGLVDPEDGETIYAEKFQGRVTITADTSTDTAYMELSSLRSDDTAVYYCTTDLAFTIFGGRRGFDPWGQGTLVTVSS VL: DIQLTQSPSFLSASVGDRVTITCRASQGISSYLAWYQQKPGKAPKLLIYAASTLQSGVPSRFSGSGSGTEFTLTISSLQPEDFATYYCQQLNSYDFGQGTRLEIK	722
antibody 276 (antibody, V domains shown) VH: QVQLQESGPGLVKPSQTLSLTCTVSGDSISSGGYYWSWIRQHPGKGLEWIGYIYYSGSAYYNPSLKSRVTISLDTSKNQFSLKLSSVTAADTAVYYCARDSVAGFSIFDYWGQGTLVTVSS VL: SSELTQDPAVSVALGQTVRITCQGDSLRSYYASWYQQKPGQAPVRVIYGKNNRPSGIPDRFSGSSSGNTASLTITGAQAEDEADYYCNSWDSSGNHVVFGGGTKLTVL	748
antibody 301 (antibody, V domains shown) VH: QVQLVQSGAEVKKPGASVKVSCKVSGYTLTELSMHWVRQAPGKGLEWMGGFDPEDGETIYAQKFQGRVTMTEDTSTDTAYMELSSLRSEDTAVYYCATAFCGGDCYPPDALDIWGQGTMVTVSS VL: DIQMTQSPSSVSASVGDRVTITCRASQGISSWLAWYQQKPGKAPKLLIYAASSLQSGVPSRFSGSGSGTDFTLTISSLQPEDFATYYCQQANSFPLTFGGGTKVEIK	865
antibody 266 (antibody, V domains shown) VH: QVQLVESGGGVVQPGRSLRLSCAASGFNLSNYAMHWVRQPSGKGLEWVSLISYDGSIKYYTDSVKGRFTVSGDNSKNTLFLQMNSLRPDDSALYYCVRGGVSGPNSFDMWGQGTTVTVSS VL: DVVMTQSPLSLPVTLGQPASISCRSSQSLVYSDGNTYVNWFQQRPGQSPRRLIYQVSIRASGVPDRFSGSGSGTDFALKISRVEAEDVGVYYCMQGTHWPVTFGQGTKVEIK	473
antibody 300 (antibody, V domains shown) VH: QVQLVESGGGVVQPGRSLTLSCAASGFTFSSYAMHWVRQAPGKGLEWVALISYDGNNKYYADSVKGRFTFSRDNSKNTLYLQMNSLRAEDTAVYYCARTNSGSYRTAFDYWGQGTLVTVSS VL: DIQMTQSPSTLSASVGDRVTITCRASQSISIWLAWYQQKPGKAPKLLIYKASSLESGVPSRFSGSGSGTEFTLTISSLQPDDFATYYCQQYNSLWTFGQGTKVEIK	721
antibody 264 (antibody, V domains shown) VH: QVHLVESGGGVVQPGRSLRLSCAASGFTLTSYAMHWVRQAPGKGLEWVALISYDGSVKKYAESVKGRITVSGDNSRNTLHLQINTLRADDTAVYYCVRGGVSGPNSFDLWGQGTMVTVSS VL: DVVMTQSPLSLPVTLGQPASISCRSSQSLEYSDGNTYVNWFQQRPGQSPRRLIYQVSNRASGVPDRFSGSGSGTDFTLQISRVEAEDVGIYYCMQGTHWPVTFGQGTKVEIK	598
antibody 294 (antibody, V domains shown) VH: EVQLVESGGGLVQPGGSLRLSCAASGFTVSSNYMNWVRQAPGKGLEWVSVIYSGGSTYYADSVKGRFTISRDNSKNTLYLQMNSLRAEDTAVYYCARDLGPSGMDVWGQGTTVTVSS VL: DIQMTQSPSSVSASVGDRVTITCRASQGISSWLAWYQQKPGKAPKLLIYAASSLQSGVPSRFSGSGSGTDFTLTISSLQPEDFATYYCQQANSFPLFGGGTKVEIK	1230
antibody 273 (antibody, V domains shown) VH: QVQLVQSGAEVKKPGASVKVSCKVSGYTLTELSMHWVRQAPGKGLEWMGGFDPEDGETIYAQKFQGRVTMTEDTSTDTAYMELSSLRSEDTAVYYCATAPGYYDSSAPQPINWFDPWGQGTLVTVSS VL: QSALTQPASVSGSPGQSITISCTGTSSDVGSYNLVSWYQQHPGKAPKLMIYEVSKRPSGVSNRFSGSKSGNTASLTISGLQAEDEADYYCCSYAGSSTLVFGGGTKLTVL	924
antibody 265 (antibody, V domains shown) VH: EVQLVQSGAEVKKPGATVKVSCKFSGDTFSHYYIHWVQQAPGKGLEWMGLVDPQDGESEYAQKFQGKVTITADTSIDTSYLEVTSLRFDDTAFYFCATRGMSGAFDRWGQGTLVTVSS VL: DIVMTQSPDSLAVSLGERATINCKSSQSILSTSNNKNYLAWYQQKPGQPPKLLIYWASTRESGVPDRFSGGGSGTDFTLTISSLQAEDVAVYYCQQYYRTAYTTPIYTFGQGTKLEIK	1280
antibody 295 (antibody, V domains shown) VH: QVQLQESGPGLVKPSQTLSLTCTVSGGSISSSDYYWSWIRQPPGKGLEWIGYIYYSGSTYYNPSLKSRVTISVDTSKNQFSLKLSSVTAADTAVYYCARVVGYCSSTSCYVDYWGQGTLVTVSS VL: EIVLTQSPATLSLSPGERVTLSCRASQSVSSYLAWYQQKPGQAPRLLIYDASNRATGIPARFSGSGSGTDFTLTISSLEPEDFAVYYCQQRSNWPPGLTFGGGTKVEIK	599
